Source listed as patent US12398154B2.

Target: KRas G12D (Homo sapiens, UniProt P01116, G12D)
Sequence (P01116 1-169 isoform P01116-2 G12D): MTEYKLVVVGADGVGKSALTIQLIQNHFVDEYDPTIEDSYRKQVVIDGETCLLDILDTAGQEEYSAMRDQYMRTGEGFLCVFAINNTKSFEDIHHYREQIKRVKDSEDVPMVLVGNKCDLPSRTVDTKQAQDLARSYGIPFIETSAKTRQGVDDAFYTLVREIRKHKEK
Assay: biochemical
measurementKind: IC50 (µM)

a: Fc1c(-c2cccc3cccc(F)c23)ncc2c(NCCCn3ccnn3)nc(OCC34CCCN3CCC4)nc12
b: O=C1NC(=O)C2(CCCCN(c3nc(OCC45CCCN4CCC5)nc4c(F)c(-c5cccc6cccc(F)c56)ncc34)C2)N1 (stereo not drawn)
Q: Rank a against b by their IC50 values and give the higher one. Refer to your chosen entry by its label in the reply.
Ans: a

* * *

Molecular target: KRas G12D (Homo sapiens, UniProt P01116, G12D)
Test: biochemical
measurementKind: IC50 (nM)

Before answering, review these 2 worked examples.
Q: // query IC50 value for entry CCc1c(F)ccc2cc(O)cc(-c3ncc4c(N5CCOCC6(COC6)C5)nc(OC[C@@]56CCCN5C[C@H](F)C6)nc4c3F)c12
Ans: 38

Q: Query CCc1cccc2cccc(-c3ncc4c(N5CC6CC(O)C(C6)C5)nc(OCC56CCCN5CCC6)nc4c3F)c12 (stereo not drawn) next
Ans: 582

P: NC(=O)C(O)CNc1nc(OCC23CCCN2CCC3)nc2c(F)c(-c3cccc4cccc(Cl)c34)ncc12 (stereo not drawn)
Q: O=C1NC(=O)C2(CCCN(c3nc(OCC45CCCN4CCC5)nc4c(F)c(-c5cccc6cccc(Cl)c56)ncc34)C2)N1 (stereo not drawn)
R: CCc1c(F)ccc2cc(O)cc(-c3ncc4c(NCC5NC(=O)NC5=O)nc(OC[C@@]56CCCN5C[C@H](F)C6)nc4c3F)c12 (stereo partly drawn)
Q: List by increasing IC50. # list labels per requested ordering
Ans: R, Q, P

* * *

Target: KRas G12D (Homo sapiens, UniProt P01116, G12D)
Experiment: biochemical
measurementKind: IC50 (nM)

Before answering, review these 3 worked examples.
Q: Param readout = IC50; param system = KRas G12D (Homo sapiens, UniProt P01116, G12D); param query = CCc1c(F)ccc2cc(O)cc(-c3ncc4c(N5CCC[C@@H](O)[C@H]5C)nc(OC[C@@]56CCCN5C[C@H](F)C6)nc4c3F)c12 [Example 181] ; response: value;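 also: TR-FRET displacement binding assay on KRas, read after a one-hour incubation at room temperature, IC50 fitted from percent-of-control values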
Ans: 29

Q: Query OC1CCCN(c2nc(OCC34CCCN3CCC4)nc3c(F)c(-c4cccc5cccc(F)c45)ncc23)C1 (stereo not shown) [Example 23] next
Ans: 5270

Q: Query NS(=O)(=O)CC1CCCN(c2nc(OCC34CCCN3CCC4)nc3c(F)c(-c4cccc5ccccc45)ncc23)C1 (stereo not shown) [Example 436] next
Ans: 798

I: NS(=O)(=O)CC1CN(c2nc(OCC34CCCN3CCC4)nc3c(F)c(-c4cccc5cccc(F)c45)ncc23)CCO1 (stereo not shown) [Example 249]
II: Fc1c(-c2cccc3cccc(Cl)c23)ncc2c(N3CCCC(c4c[nH]nn4)C3)nc(OCC34CCCN3CCC4)nc12 (stereo not shown) [Example 108]
III: CCc1c(F)ccc2cc(O)cc(-c3ncc4c(N5CCCC(N6CCCS6(=O)=O)C5)nc(OC[C@@]56CCCN5C[C@H](F)C6)nc4c3F)c12 (stereo partly shown) [Example 348]
IV: O=S1(=O)CC(CNc2nc(OCC34CCCN3CCC4)nc3c(F)c(-c4cccc5cccc(CO)c45)ncc23)C1 [Example 443]
V: CCc1c(F)ccc2cc(O)cc(-c3ncc4c(NCCN5C(=O)CNC5=O)nc(OC[C@@]56CCCN5C[C@H](F)C6)nc4c3F)c12 [Example 379]
Q: List by increasing IC50. # list labels per requested ordering
Ans: III, V, I, II, IV

a: Fc1c(-c2cccc3cccc(F)c23)ncc2c(N3CCCc4ncccc4C3)nc(OCC34CCCN3CCC4)nc12 [Example 246]
b: CC1(O)COCCN(c2nc(OCC34CCCN3CCC4)nc3c(F)c(-c4cccc5cccc(F)c45)ncc23)C1 (stereo not shown) [Example 64]
Q: Rank a against b by their IC50 values and give the higher one. Refer to your chosen entry by its label in the reply.
Ans: a
